For each record, write down the corresponding IC50.
System tested: full-length human RORγt (Homo sapiens (Human))
Measurement notes: RORγt (full-length human) reporter assay, Conditions B or C
Type: cell-based
Experimental conditions: Conditions B or C; read-out: RORγt (FL) Reporter Assay B or C, IC50
One number for each entry, in µM.

The following molecules have reported results that may help.
Molecule	System tested	Value unit	IC50
C[C@H](Nc1cc(C(F)(F)F)c(-c2sc(C(=O)NCC(C)(C)O)nc2C(=O)N2CC(F)(F)C[C@@H]2C)cn1)C1CC1 [Example 142]	full-length human RORγt (Homo sapiens (Human))	µM	0.027
C[C@H](Nc1cc(C(F)(F)F)c(-c2sc(C(=O)NCC(C)(C)O)nc2C(=O)N2CCCC[C@@H]2C)cn1)C(F)(F)F [Example 47]	full-length human RORγt (Homo sapiens (Human))	µM	0.0054
CC[C@H](Nc1cc(C(F)F)c(-c2sc(C(=O)N[C@H](C)C(C)(C)O)nc2C(=O)N2CC(F)(F)C[C@@H]2C)cn1)C(F)(F)F [Example 245]	full-length human RORγt (Homo sapiens (Human))	µM	0.026

Value sought for every listed molecule: IC50.
1. CC[C@@H](Nc1cc(C(F)(F)F)c(-c2sc(C(=O)NCC(C)(C)O)nc2C(=O)N2CCC[C@@H]2C)cn1)C1CC1 (relative stereo) [Example 129]
2. C[C@H]1CC(F)(F)CN1C(=O)c1nc(C(=O)N[C@H]2COC[C@H]2O)sc1-c1cnc(NC2(C)CCC2)cc1C(F)(F)F (relative stereo) [Example 184]

a:
1. 0.011
2. 0.049

====

System tested: full-length human RORγt (Homo sapiens (Human))
Measurement notes: RORγt (full-length human) reporter assay, Conditions B or C
Format: cell-based
Experimental conditions: at 3 μM compound concentration; read-out: RORγt (FL) Reporter Assay B or C, % inhibition
Observation type: inhibition at 3 µM (%)
One number for each entry, in %.

Compound	System tested	Value unit	Value reported
C[C@H]1CCCN1C(=O)c1nc(C(=O)N[C@H]2C[C@H](O)C2)sc1-c1cnc(N[C@@H](C2CC2)C(F)(F)F)cc1C(F)F [Example 310]	full-length human RORγt (Homo sapiens (Human))	%	92
C[C@H]1CCCN1C(=O)c1nc(C(=O)NC[C@@H](O)CO)sc1-c1cnc(NC(C)(C)C)cc1C(F)(F)F [Example 345]	full-length human RORγt (Homo sapiens (Human))	%	111
C[C@H](Nc1cc(C(F)F)c(-c2sc(C(=O)N[C@H](C)C(C)(C)O)nc2C(=O)N2C3CCC2CC3)cn1)C(F)(F)F [Example 445]	full-length human RORγt (Homo sapiens (Human))	%	73
C[C@H](Nc1cc(C(F)F)c(-c2sc(C(=O)N[C@@H]3CCC[C@H]3O)nc2C(=O)N2CCC[C@@H]2C)cn1)C(F)(F)F [Example 283]	full-length human RORγt (Homo sapiens (Human))	%	106
C[C@H]1CCCN1C(=O)c1nc(C(=O)NC[C@H](O)CO)sc1-c1cnc(NC(C)(C)C)cc1C(F)(F)F [Example 363]	full-length human RORγt (Homo sapiens (Human))	%	111
C[C@H](Nc1cc(C(F)F)c(-c2sc(C(=O)N[C@H]3CC[C@@H]3O)nc2C(=O)N2C3CCC2CC3)cn1)C(F)(F)F (relative stereo) [Example 292]	full-length human RORγt (Homo sapiens (Human))	%	106

Value sought for every listed compound: inhibition at 3 µM.
1. C[C@H]1CCCN1C(=O)c1nc(C(=O)NC2COC2)sc1-c1cnc(NC(C)(C)C)cc1C(F)(F)F [Example 259]
2. C[C@H]1CCCN1C(=O)c1nc(C(=O)N2C[C@@H](O)[C@H](F)C2)sc1-c1cnc(NC(C)(C)C)cc1C(F)(F)F [Example 372]
3. C[C@H]1CCCN1C(=O)c1nc(C(=O)N[C@H]2C[C@@H](O)C2)sc1-c1cnc(NC(C)(C)C)cc1C(F)(F)F [Example 251]
4. C[C@H]1CC(F)(F)CN1C(=O)c1nc(C(=O)N[C@H](C)C(C)(C)O)sc1-c1cnc(NC2(C)CCC2)cc1C(F)F [Example 325]
5. C[C@H]1CC(F)(F)CN1C(=O)c1nc(C(=O)N[C@H](C)C(C)(C)O)sc1-c1cnc(N[C@@H](C2CC2)C(F)(F)F)cc1C(F)F [Example 314]
6. C[C@H]1CCCN1C(=O)c1nc(C(=O)NCC(C)(O)C(F)(F)F)sc1-c1cnc(NC(C)(C)C)cc1C(F)(F)F (single isomer, unassigned) [Example 358]
7. CC[C@H](Nc1cc(C(F)F)c(-c2sc(C(=O)N[C@@H]3CC[C@H]3O)nc2C(=O)N2C3CCC2CC3)cn1)C(F)(F)F (relative stereo) [Example 405]

a:
101
125
104
96
101
119
95

====

For each record, write down the corresponding RORγt (FL) Reporter Assay B or C, % inhibition (value marked *).
System tested: full-length human RORγt (Homo sapiens (Human), UniProt P51449)
Sequence (P51449 other isoform, or with tags, fused parts or gaps): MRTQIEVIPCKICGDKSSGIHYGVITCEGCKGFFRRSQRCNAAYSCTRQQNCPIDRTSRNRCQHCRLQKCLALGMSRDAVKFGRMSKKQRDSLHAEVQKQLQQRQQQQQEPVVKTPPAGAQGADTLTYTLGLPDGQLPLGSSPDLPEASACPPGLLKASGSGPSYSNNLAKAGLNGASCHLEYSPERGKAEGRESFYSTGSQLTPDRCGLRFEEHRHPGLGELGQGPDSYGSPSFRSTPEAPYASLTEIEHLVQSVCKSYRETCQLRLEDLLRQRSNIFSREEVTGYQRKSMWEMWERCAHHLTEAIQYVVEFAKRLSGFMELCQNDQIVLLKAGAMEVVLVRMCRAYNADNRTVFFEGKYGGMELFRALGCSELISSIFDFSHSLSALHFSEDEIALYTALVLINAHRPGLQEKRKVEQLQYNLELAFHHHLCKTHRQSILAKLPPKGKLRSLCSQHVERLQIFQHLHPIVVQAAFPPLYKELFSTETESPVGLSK
Measurement notes: RORγt (full-length human) reporter assay, Conditions B or C
Assay type: cell-based
Experimental conditions: Conditions B or C; marked *: footnote not given

Value sought for every listed molecule: RORγt (FL) Reporter Assay B or C, % inhibition (value marked *).
1. CC[C@H](Nc1cc(C(F)F)c(-c2sc(C(=O)N[C@H]3C[C@@H]3O)nc2C(=O)N2CCC[C@@H]2C)cn1)C(F)(F)F (relative stereo)
2. C[C@H]1CC(F)(F)CN1C(=O)c1nc(C(=O)NC2COCC2O)sc1-c1cnc(NC2(C)CCC2)cc1C(F)(F)F (stereo in doubt) [Example 185]
3. CC[C@@H](Nc1cc(C(F)F)c(-c2sc(C(=O)NCC(C)(C)O)nc2C(=O)N2C3CCC2CC3)cn1)C1CC1 (stereo in doubt)

a:
98* %
101* %
105* %

====

For each record, write down the corresponding RORγt (FL) Reporter Assay A, % inhibition (value marked **).
System tested: full-length human RORγt (Homo sapiens (Human))
Measurement notes: RORγt (full-length human) reporter assay, Conditions A
Type: cell-based
Experimental conditions: Conditions A; marked **: footnote not shown

Compound	System tested	Value reported
CC(C)(O)CCNC(=O)c1nc(C(=O)N2CCC(F)(F)CC2)c(-c2cnc(NC3CCCCC3)cc2C(F)(F)F)s1	full-length human RORγt (Homo sapiens (Human))	105** %

Value sought for every listed compound: RORγt (FL) Reporter Assay A, % inhibition (value marked **).
1. CC(C)(O)CNC(=O)c1nc(C(=O)N2CCC(F)CC2)c(-c2cnc(NC3CCCCC3)c(C(F)(F)F)c2)s1
2. CC(C)(O)CNC(=O)c1nc(C(=O)N2CCC(F)CC2)c(-c2cnc(NC3CCCC(F)(F)C3)c(C(F)(F)F)c2)s1 (stereo not drawn)
3. CC(C)(O)CNC(=O)c1nc(C(=O)N2CCC(F)CC2)c(-c2cnc(NC3CCCCC3)cc2C(F)(F)F)s1
4. C[C@H]1CC(F)(F)CN1C(=O)c1nc(C(=O)NCC(C)(C)O)sc1-c1cnc(NC2CCCCC2)cc1C(F)(F)F

a:
["100** %", "99** %", "106** %", "107** %"]

q: What value of RORγt (FL) Reporter Assay A, % inhibition (value marked **) has been recorded for this entry: C[C@H]1CCCCN1C(=O)c1nc(C(=O)NC2CCS(=O)(=O)CC2)sc1-c1cnc(NC2CCCCC2)cc1C(F)(F)F
a: 95** %

====

For each record, write down the corresponding Kd.
System tested: human RORγt ligand binding domain (RORγt LBD) (Homo sapiens (Human), UniProt P51449)
Sequence (P51449 other isoform, or with tags, fused parts or gaps): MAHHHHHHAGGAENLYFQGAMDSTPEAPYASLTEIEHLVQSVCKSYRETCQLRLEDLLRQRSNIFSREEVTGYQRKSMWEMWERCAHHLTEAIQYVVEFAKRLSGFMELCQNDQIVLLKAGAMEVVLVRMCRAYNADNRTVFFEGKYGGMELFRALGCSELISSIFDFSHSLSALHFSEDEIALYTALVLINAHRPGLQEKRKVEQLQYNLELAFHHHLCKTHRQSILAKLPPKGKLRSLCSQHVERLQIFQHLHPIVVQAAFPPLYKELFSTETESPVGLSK
Measurement notes: RORγt ThermoFluor® assay (thermal shift binding)
Experimental conditions: read-out: ThermoFluor® Assay, Kd
Record the result as number plus unit.

The following compounds have reported results that may help.
Smiles notation	Kd
C[C@H]1CCCN1C(=O)c1nc(C(=O)NCC2(O)CC2)sc1-c1cnc(NC2CCCC2)cc1C(F)F	40 nM
C[C@H](Nc1cc(C(F)F)c(-c2sc(C(=O)N[C@H]3CCC[C@@H]3O)nc2C(=O)N2CC(F)(F)C[C@@H]2C)cn1)C(F)(F)F	0.77 nM
CC(C)(O)CNC(=O)c1nc(C(=O)N2CCC(F)CC2)c(-c2cnc(NC3CCC(F)(F)CC3)cc2C(F)(F)F)s1	80 nM
C[C@H]1CCCN1C(=O)c1nc(C(=O)NCC(C)(C)O)sc1-c1cnc(NC2(C(F)(F)F)CCC2)cc1C(F)F	1.9 nM
CC(C)(O)CNC(=O)c1nc(C(=O)N2C3CCC2CC3)c(-c2cnc(NC(C)(C)C)cc2C(F)(F)F)s1	1.2 nM

Value sought for every listed compound: Kd.
1. C[C@H](Nc1cc(C(F)F)c(-c2sc(C(=O)NCC(C)(C)O)nc2C(=O)N2CCC[C@@H]2C)cn1)C1CC1
2. C[C@H]1CCCN1C(=O)c1nc(C(=O)NCC(C)(C)O)sc1-c1cnc(NCC2(C)CC2)cc1C(F)(F)F

a:
["4.9 nM", "7.4 nM"]
